# target_of_assay: rSmTAChE (Schistosoma mansoni, UniProt A0A3Q0KMM5)
# Sequence (A0A3Q0KMM5 27-661 limits assumed): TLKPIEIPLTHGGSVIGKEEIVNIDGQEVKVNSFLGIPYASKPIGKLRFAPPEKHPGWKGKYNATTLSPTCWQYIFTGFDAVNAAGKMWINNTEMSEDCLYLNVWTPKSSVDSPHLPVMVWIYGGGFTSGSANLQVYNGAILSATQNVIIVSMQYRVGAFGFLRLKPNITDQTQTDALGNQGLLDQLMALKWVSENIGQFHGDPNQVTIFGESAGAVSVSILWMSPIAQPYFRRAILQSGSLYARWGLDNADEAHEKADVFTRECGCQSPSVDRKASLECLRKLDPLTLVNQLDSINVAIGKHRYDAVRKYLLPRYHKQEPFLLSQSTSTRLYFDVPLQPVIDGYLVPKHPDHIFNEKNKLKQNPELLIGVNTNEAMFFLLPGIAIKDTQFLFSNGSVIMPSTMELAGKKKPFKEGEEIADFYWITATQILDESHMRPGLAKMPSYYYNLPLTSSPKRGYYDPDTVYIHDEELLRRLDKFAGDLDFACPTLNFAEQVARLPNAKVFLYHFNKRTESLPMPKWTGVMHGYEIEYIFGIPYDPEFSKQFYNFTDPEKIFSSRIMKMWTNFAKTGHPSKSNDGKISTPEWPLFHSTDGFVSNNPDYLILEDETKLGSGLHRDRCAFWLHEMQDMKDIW
# Format: biochemical
property_label: rSmTAChE Data Mode

COc1cccc(C#Cc2ccc([C@@H]3[C@@H](C#N)N(C(=O)c4ccccn4)[C@@H]3CO)cc2)c1 = inactive
COc1ccc(C#Cc2ccc3c(c2)O[C@@H](CN(C)S(=O)(=O)c2ccccc2F)[C@@H](C)CN([C@H](C)CO)S3(=O)=O)cc1 = inactive

---

# target_of_assay: UniProt:A0A3Q0KMM5
# assay_remarks: biochemical
property_label: Inhibition (%) Replicate A
One number for each entry, in %.

COc1ccc(NC(=O)Nc2ccc3c(c2)[C@H]2C[C@@H](CC(=O)NCc4ccccn4)O[C@@H](CO)[C@H]2O3)cc1 = 88.58
CCCCc1oc2ccccc2c1C(=O)c1cc(I)c(OCCN(CC)CC)c(I)c1 = 66.24
O=C(C[C@H]1C[C@H]2c3cc(NC(=O)Nc4ccc(C(F)(F)F)cc4)ccc3O[C@H]2[C@H](CO)O1)NC1CCCCC1 = 68.27
O=C(O)CNC(=O)c1c(O)c2ccccc2n(Cc2ccccc2)c1=O [IOX2, reference compound] = 61.67
NC(=O)N/N=C/c1ccc(Oc2ccc(F)cc2)cc1 = 80.22

For each of the items listed, what is its Inhibition (%) Replicate A?
1. C[C@]12CCC3c4ccc(O)cc4CCC3C1CC[C@@H]2OC(=O)CCC1CCCC1 (some centres unmarked)
2. C[C@]12CC[C@@H]3c4ccc(O)cc4C[C@@H](CCCCCCCCC[S+]([O-])CCCC(F)(F)C(F)(F)F)[C@H]3[C@@H]1CC[C@@H]2O (some centres unmarked) [BRD-A85667082-001-13-5]
3. Clc1ccc(CSC(Cn2ccnc2)c2ccc(Cl)cc2Cl)cc1 (centres unmarked)
4. CC1(C)CCC(C)(C)c2cc(C#Cc3ccc(C(=O)O)cc3)ccc21

Reply |
1: 90.28; 2: 85.50; 3: 67.22; 4: 64.60

For each of the items listed, what is its Inhibition (%) Replicate A?
1. C[C@]12CC[C@@H]3c4ccc(O)cc4C[C@@H](CCCCCCCCC[S+]([O-])CCCC(F)(F)C(F)(F)F)[C@H]3[C@@H]1CC[C@@H]2O (some centres unmarked) [BRD-A85667082-001-11-9]
2. O=C(Nc1ccccc1Br)N[C@@H]1CCN(c2ccc(C(F)(F)F)cn2)C1

Reply |
1. 64.01
2. 67.06

Cited source: paper PMC12154458
